I'd appreciate it if you could supply shrunken log2 fold change values for the items below.
# Test system: Escherichia coli TOP10;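 further: peptides expressed intracellularly from a pBAD plasmid library in pooled LB shake-flask culture, induced with 0.3% L-arabinose, DNA abundance read by NGS, three biological replicates, DESeq2 with apeglm shrinkage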
# method_description: shrunken log2 fold change of peptide-encoding DNA abundance (4.5 h post-induction vs induction); higher = less antimicrobial activity (less host growth inhibition)
# assay_context: time post-induction: 4.5 h; library: site-saturation at positions 5, 18, 19, 20

Exercise: Requested field: shrunken log2 fold change. Item: RRIRTRPPRLPRPRPRPCEHPRP
Key: 0.00673

Exercise: Requested field: shrunken log2 fold change. Item: RRIRLRPPRLPRPRPRPCEFPRP
Key: -0.032

Exercise: Requested field: shrunken log2 fold change. Item: RRIRVRPPRLPRPRPRPYFIPRP
Key: -0.72

Exercise: Requested field: shrunken log2 fold change. Item: RRIRQRPPRLPRPRPRPIHSPRP
Key: -0.138

Exercise: Requested field: shrunken log2 fold change. Item: RRIRYRPPRLPRPRPRPQWQPRP
Key: -0.00114

Exercise: Requested field: shrunken log2 fold change. Item: RRIRDRPPRLPRPRPRPGSSPRP
Key: 0.0783

Exercise: Requested field: shrunken log2 fold change. Item: RRIRFRPPRLPRPRPRPEVRPRP
Key: 0.14

Exercise: Requested field: shrunken log2 fold change. Item: RRIRIRPPRLPRPRPRPHPFPRP
Key: -0.583

Exercise: Requested field: shrunken log2 fold change. Item: RRIRSRPPRLPRPRPRPSVLPRP
Key: -0.222

Exercise: Requested field: shrunken log2 fold change. Item: RRIRNRPPRLPRPRPRPFIWPRP
Key: -0.741

Exercise: Requested field: shrunken log2 fold change. Item: RRIRMRPPRLPRPRPRPLFWPRP
Key: 0.554

Exercise: Requested field: shrunken log2 fold change. Item: RRIRCRPPRLPRPRPRPRQDPRP
Key: -0.0742

Exercise: Requested field: shrunken log2 fold change. Item: RRIRHRPPRLPRPRPRPFARPRP
Key: -0.107

Exercise: Requested field: shrunken log2 fold change. Item: RRIRDRPPRLPRPRPRPKQHPRP
Key: 0.0788

Exercise: Requested field: shrunken log2 fold change. Item: RRIRKRPPRLPRPRPRPHSPPRP
Key: 0.16

The reported numbers originate from the supplement of paper PMC9112550.
